Quick record: IC50, UniProtKB P62937.
Sequence (P62937 whole entry): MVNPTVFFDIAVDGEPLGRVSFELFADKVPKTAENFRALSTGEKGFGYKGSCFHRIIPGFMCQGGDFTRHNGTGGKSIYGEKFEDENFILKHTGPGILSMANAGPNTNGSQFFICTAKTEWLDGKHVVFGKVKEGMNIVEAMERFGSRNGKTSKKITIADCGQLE

[
  {
    "compound": "O=C(Nc1cc(Cl)c(O)c(Cl)c1)c1ccc2ccccc2c1",
    "IC50": "> 100 µM"
  },
  {
    "compound": "CC(CC(=O)Nc1cc(Cl)c(O)c(Cl)c1)CC(C)(C)C (stereo not shown)",
    "IC50": "> 100 µM"
  },
  {
    "compound": "O=C(Nc1cc(Cl)c(O)c(Cl)c1)NC1CCCCC1",
    "IC50": "> 100 µM"
  },
  {
    "compound": "O=C(Cc1ccc2c(c1)OCO2)Nc1cc(Cl)c(O)c(Cl)c1",
    "IC50": "> 100 µM"
  },
  {
    "compound": "Cc1c(Cl)cc(NC(=O)NC(C)(C)CC(C)(C)C)c(O)c1Cl",
    "IC50": "10 to 50 µM"
  },
  {
    "compound": "Oc1c(Cl)cc(NC(=S)Nc2ccccc2C(F)(F)F)cc1Cl",
    "IC50": "> 100 µM"
  },
  {
    "compound": "Oc1c(Cl)cccc1NCc1ccccc1Sc1ccc(Cl)cc1",
    "IC50": "10 to 50 µM"
  },
  {
    "compound": "Cc1c(Cl)cc(NC(=S)Nc2ccccc2C(F)(F)F)c(O)c1Cl",
    "IC50": "> 100 µM"
  },
  {
    "compound": "Oc1c(NCc2ccccc2Sc2ccc(Cl)cc2)ccc(F)c1F",
    "IC50": "50 to 100 µM"
  },
  {
    "compound": "O=C(Nc1cc(Cl)c(O)c(Cl)c1)c1ccccc1",
    "IC50": "> 100 µM"
  },
  {
    "compound": "O=C(Cc1ccccc1[N+](=O)[O-])Nc1cc(Cl)c(O)c(Cl)c1",
    "IC50": "> 100 µM"
  },
  {
    "compound": "Cc1c(Cl)cc(NC(=O)NC23CC4CC(CC(C4)C2)C3)c(O)c1Cl",
    "IC50": "10 to 50 µM"
  },
  {
    "compound": "CC(C)(C)c1ccc(Oc2cccc(CNc3cc(Cl)cc(Cl)c3O)c2)cc1",
    "IC50": "10 to 50 µM"
  },
  {
    "compound": "Cc1c(Cl)cc(NCc2ccccc2Sc2ccc(Cl)cc2)c(O)c1Cl",
    "IC50": "10 to 50 µM"
  },
  {
    "compound": "Cc1c(Cl)cc(NCc2ccccc2)c(O)c1Cl",
    "IC50": "> 100 µM"
  },
  {
    "compound": "CC(C)(C)NC(=O)Nc1cc(NC(=O)NC2CCCCC2)cc(Cl)c1O",
    "IC50": "10 to 50 µM"
  }
]

###

pIC50 values for the compounds below.
# target-of-assay: EcParvulin (Escherichia coli, UniProt P0A9L5)
# Sequence (P0A9L5 whole entry): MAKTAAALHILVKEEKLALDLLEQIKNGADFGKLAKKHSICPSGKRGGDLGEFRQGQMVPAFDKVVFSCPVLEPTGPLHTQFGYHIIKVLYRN
# experiment: protease-coupled PPIase assay, EcParvulin
# Format: biochemical
# test-context: 20 nM EcParvulin, substrate Suc-Ala-Phe-Pro-Phe-pNA, chymotrypsin, pH 7.8, 6° C.; read-out: IC50 class, Target T-5 (EcParv)
pIC50: −log10 of the molar value.
test-readout: pIC50

[
  {
    "compound": "O=C(Cc1ccc2c(c1)OCO2)Nc1cc(Cl)c(O)c(Cl)c1 [Compound 1295]",
    "target-of-assay": "EcParvulin (Escherichia coli, UniProt P0A9L5)",
    "test-readout": "pIC50",
    "observed-result": "5.00 to 6.00"
  },
  {
    "compound": "Cc1c(Cl)cc(NCc2c(F)cccc2Cl)c(O)c1Cl [Compound 512]",
    "target-of-assay": "EcParvulin (Escherichia coli, UniProt P0A9L5)",
    "test-readout": "pIC50",
    "observed-result": "4.30 to 5.00"
  },
  {
    "compound": "Oc1ccc(NCc2ccccc2Sc2ccc(Cl)cc2)c(O)c1 [Compound 1044]",
    "target-of-assay": "EcParvulin (Escherichia coli, UniProt P0A9L5)",
    "test-readout": "pIC50",
    "observed-result": "4.30 to 5.00"
  },
  {
    "compound": "O=C(CCc1ccccc1)Nc1cc(Cl)c(O)c(Cl)c1 [Compound 1293]",
    "target-of-assay": "EcParvulin (Escherichia coli, UniProt P0A9L5)",
    "test-readout": "pIC50",
    "observed-result": "4.30 to 5.00"
  },
  {
    "compound": "O=C(NCc1ccccc1)Nc1cc(Cl)c(O)c(Cl)c1 [Compound 700]",
    "target-of-assay": "EcParvulin (Escherichia coli, UniProt P0A9L5)",
    "test-readout": "pIC50",
    "observed-result": "4.30 to 5.00"
  }
]
